# PROCEDURE_TEXT: recombinant barcode read abundance after kanamycin selection (control-corrected) (log10(CPM+1)); higher = more efficient recombination; sequences stand for … in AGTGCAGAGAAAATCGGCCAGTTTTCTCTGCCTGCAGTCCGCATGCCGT…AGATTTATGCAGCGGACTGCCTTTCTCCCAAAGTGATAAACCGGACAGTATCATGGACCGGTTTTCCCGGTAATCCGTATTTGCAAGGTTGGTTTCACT; site = the 11-nt target;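 further: IS621 recombinase and bridge RNA in Escherichia coli cells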
Use Satisfied when the recorded recombinant barcode read abundance (log10) is no lower than 0.3; use Not satisfied when it is lower.

Req: Decide: recombinant barcode read abundance (log10) of CAGGGGTCTTGGGTTCTAACCTGTTGCAT (site CAGGGGTCTAT) >= 0.3?
Resp: Satisfied

Req: Decide: recombinant barcode read abundance (log10) of TCGTACCCTTGGGTTCTAACCTGTTGCGA (site TCGAACCCTTC) >= 0.3?
Resp: Not satisfied

Req: Decide: recombinant barcode read abundance (log10) of GGGGACCCTTGGGTTCTAACCTGTTGCGT (site GGGGACCCTCC) >= 0.3?
Resp: Satisfied

Req: Decide: recombinant barcode read abundance (log10) of CGCCTAACTTGGGTTCTAACCTGTTGCTT (site CGCCCTACTAA) >= 0.3?
Resp: Not satisfied

Req: Decide: recombinant barcode read abundance (log10) of AAGGAACCTTGGGTTCTAACCTGTTGCCT (site AAGGAACCTAG) >= 0.3?
Resp: Satisfied

Req: Decide: recombinant barcode read abundance (log10) of CTCCTATCTTGGGTTCTAACCTGTTGCCT (site CTCCTATCTAG) >= 0.3?
Resp: Satisfied

Req: Decide: recombinant barcode read abundance (log10) of TGATATGCTTGGGTTCTAACCTGTTGCCT (site TGAAATGCTAG) >= 0.3?
Resp: Satisfied

Req: Decide: recombinant barcode read abundance (log10) of TTCTGTGCTTGGGTTCTAACCTGTTGCCT (site TTCTGGGCTAG) >= 0.3?
Resp: Not satisfied

Req: Decide: recombinant barcode read abundance (log10) of TTCCCCACTTGGGTTCTAACCTGTTGCCT (site TTCCCCACTAG) >= 0.3?
Resp: Satisfied

Req: Decide: recombinant barcode read abundance (log10) of CCTGACACTTGGGTTCTAACCTGTTGCGG (site CCTTACACTCC) >= 0.3?
Resp: Not satisfied

Req: Decide: recombinant barcode read abundance (log10) of CAATGGGCTTGGGTTCTAACCTGTTGCCG (site CGATGGACTCG) >= 0.3?
Resp: Not satisfied

Req: Decide: recombinant barcode read abundance (log10) of ACATGTACTTGGGTTCTAACCTGTTGCAT (site ACATGCACTAT) >= 0.3?
Resp: Not satisfied

Req: Decide: recombinant barcode read abundance (log10) of CTAAGAGCTTGGGTTCTAACCTGTTGCAG (site CTAAGAGCTCT) >= 0.3?
Resp: Satisfied

Req: Decide: recombinant barcode read abundance (log10) of CCGTAAACTTGGGTTCTAACCTGTTGCCT (site CCGTAATCTAG) >= 0.3?
Resp: Not satisfied

Req: Decide: recombinant barcode read abundance (log10) of GAAGAGTCTTGGGTTCTAACCTGTTGCCT (site GAAGAGTCTAG) >= 0.3?
Resp: Satisfied

Req: Decide: recombinant barcode read abundance (log10) of GGACGGACTTGGGTTCTAACCTGTTGCCA (site GGACGGACTTG) >= 0.3?
Resp: Satisfied

Req: Decide: recombinant barcode read abundance (log10) of TTAGTGGCTTGGGTTCTAACCTGTTGCCT (site TTAGTTGCTAG) >= 0.3?
Resp: Not satisfied

Req: Decide: recombinant barcode read abundance (log10) of TGAGAGGCTTGGGTTCTAACCTGTTGCCT (site TGAGTGGCTAG) >= 0.3?
Resp: Satisfied

Req: Decide: recombinant barcode read abundance (log10) of TAGCAATCTTGGGTTCTAACCTGTTGCTA (site GTCGTTACTAG) >= 0.3?
Resp: Not satisfied

Req: Decide: recombinant barcode read abundance (log10) of GAACACTCTTGGGTTCTAACCTGTTGCTG (site GAACACTCTCA) >= 0.3?
Resp: Satisfied

Req: Decide: recombinant barcode read abundance (log10) of GGCTAGCCTTGGGTTCTAACCTGTTGCCT (site TGTTAGCCTAG) >= 0.3?
Resp: Not satisfied

Req: Decide: recombinant barcode read abundance (log10) of TACAAGTCTTGGGTTCTAACCTGTTGCCT (site CTACGACCTCC) >= 0.3?
Resp: Not satisfied

Req: Decide: recombinant barcode read abundance (log10) of GCTCAGTCTTGGGTTCTAACCTGTTGCCT (site GCTCAGGCTAG) >= 0.3?
Resp: Not satisfied

Req: Decide: recombinant barcode read abundance (log10) of TTAGGGCCTTGGGTTCTAACCTGTTGCCT (site TTAGGGACTAG) >= 0.3?
Resp: Not satisfied

Req: Decide: recombinant barcode read abundance (log10) of GGCACCACTTGGGTTCTAACCTGTTGCCT (site GGCACCACTAG) >= 0.3?
Resp: Satisfied

Req: Decide: recombinant barcode read abundance (log10) of CTCATACCTTGGGTTCTAACCTGTTGCGT (site CTCATACCTAC) >= 0.3?
Resp: Satisfied

Req: Decide: recombinant barcode read abundance (log10) of CTAATTGCTTGGGTTCTAACCTGTTGCAA (site CTATTTGCTTT) >= 0.3?
Resp: Not satisfied

Req: Decide: recombinant barcode read abundance (log10) of CATGCGCCTTGGGTTCTAACCTGTTGCGG (site CATGCGCCTCC) >= 0.3?
Resp: Satisfied

Req: Decide: recombinant barcode read abundance (log10) of TTCGTAGCTTGGGTTCTAACCTGTTGCCT (site TTCGTAGCTAC) >= 0.3?
Resp: Not satisfied

Req: Decide: recombinant barcode read abundance (log10) of AAGACCTCTTGGGTTCTAACCTGTTGCCT (site AAGACCTCTAG) >= 0.3?
Resp: Satisfied

Req: Decide: recombinant barcode read abundance (log10) of AGTCTAGCTTGGGTTCTAACCTGTTGCCT (site AGTCTAGCTTG) >= 0.3?
Resp: Not satisfied

Req: Decide: recombinant barcode read abundance (log10) of TCCCAGTCTTGGGTTCTAACCTGTTGCTG (site TCCCAGTCTCA) >= 0.3?
Resp: Satisfied

Req: Decide: recombinant barcode read abundance (log10) of CTCACACCTTGGGTTCTAACCTGTTGCCT (site CTCACACCTAG) >= 0.3?
Resp: Satisfied
